# protocol.notes: qHTS of TDP-43 Inhibitors; also: nearly all actives have a fitted effect of over 50% in size
# condition.notes: TDP-43 expressing yeast growth rescue, BacTiter-Glo, 24 h; series mostly up to 46.1 µM
# Excerpt: The goal of this project is to identify new chemical probes capable of reversing the toxicity associated with TDP-43 which is associated with frontotemporal lobar degeneration and amyotrophic lateral sclerosis. […] To this end, a miniaturized assay was developed to be screened against the Molecular Libraries Small Molecule Repository (MLSMR) to discover TDP-43 inhibitors. Please note that in the set-up this yeast-based assay compounds that inhibit as TDP-43, have a read-out as activators. […]
In all, about 410,000 compounds went through this assay and about 7,200 (1.8%) were called active. Not shown: some 7% with an inconclusive outcome. Calls follow the shape of the dose curve; as a rule, active = well fitted activation curve with a large enough effect; inconclusive = small, poorly fitted or top-dose-only effect, or another doubt; inactive = no such curve, though single readings can be large or run the other way. Shown is part of a subset that was picked to be rich in actives.
Reply using exactly one outcome from active, inactive

Worked examples follow.
compound: Nc1nc(NCC2CCCO2)nc(Nc2ccccc2F)c1[N+](=O)[O-] (stereo not given)
class.label: inactive
//
compound: CCOc1ccc(CNC(=O)c2cc(-c3ccc(Cl)s3)nc3ccccc23)cc1
class.label: inactive

Kindly review the next compound as well.
# fetch the recorded call for Cc1cc(C(=O)CCl)c(C)n1CC1COc2ccccc2O1 (stereo not given) here
active
